Attribution: patent US20110021621A1

- Method Notes: Bioabsorption: plasma concentration measurement in rats with oral administration
- Assay type: in vivo, rat
- Experimental Conditions: male, SD, rat, plasma, 10 mg/kg, 24.0 h, read-out: plasma concentration, Mean, time point 24.0 h
Measured Attribute: concentration at 24 h
Your reply should be a number followed by the unit it is expressed in.

Ask: Dear colleague, please send me the reported concentration at 24 h for "O=c1oc2ccc(Cl)cc2c(O)c1O" when you can.
Result: 0 ng/mL

----------
- Tested on: bleeding time in male SD rats
- Method Notes: Effect on bleeding time in rats (tail cutting)
- Experimental Conditions: 30 mg/kg oral, 60 min between oral dosing and the tail cutting, max observation 60 min
# maps each entry to its Bleeding time
Report as a plain number; the unit min is understood.

Before answering, review these 4 worked examples.
                                   compound             measurement_target  measured_attribute  experimental_value
0  CCCCCCOc1c(O)c2ccc(OCCO)cc2oc1=O [Compound 445]  bleeding time in male SD rats       Bleeding time                 9.1
1  CCCCCCCCOc1c(O)c2ccc(OCCO)cc2oc1=O [Compound 451]  bleeding time in male SD rats       Bleeding time                 7.8
2  CCCCCCOc1c(O)c2ccc(O)cc2oc1=O [Compound 125]  bleeding time in male SD rats       Bleeding time                 8.0
3  CCCCCCCCOc1c(O)c2ccc(OCCC(=O)O)cc2oc1=O [Compound 525]  bleeding time in male SD rats       Bleeding time                 8.5

Ask: Retrieve Bleeding time measured for CCOc1c(O)c2ccc(OC)cc2oc1=O [Compound 144] and print it.
Result: 8.9

----------
- Method Notes: Bioabsorption: plasma concentration measurement in rats with oral administration
- Type: in vivo, rat
- Experimental Conditions: male, SD, rat, plasma, 10 mg/kg, from administration to 24 hours, read-out: AUC (area under the plasma concentration-time curve)
Measured Attribute: AUC (ng·h/mL)
Could you give me the number in ng·h/mL? Just the number is fine.

In [3]: df
Out[3]:
                       compound  unit_of_measure  experimental_value
0  O=c1oc2ccc(Cl)cc2c(O)c1O [B]          ng·h/mL                8300

Now turn to the next compound.
Ask: For O=c1oc2ccccc2c(O)c1O [comparative compound A] , write its AUC.
Result: 2200

----------
- Tested on: circulatory insufficiency model of rats induced by injection of lauric-acid into their femoral artery
- Method Notes: Circulatory insufficiency model induced by lauric-acid in rats (lesion index)
- Assay type: in vivo, rat
- Design: key: summed toe lesion grades, +5 if heel reached; max 25 points
- Experimental Conditions: male Wistar rats; 30 mg/kg multiple oral dosing (1 h prior to and 3 h after lauric-acid, then twice daily); 3 days after lauric-acid injection; average, max 25 points
Measured Attribute: Lesion Index after 3 days
Enter a number only.

Solved cases below.
In [3]: df
Out[3]:
                                   molecule  experimental_value
0  CCCCCCOc1c(O)c2ccc(O)cc2oc1=O [Compound 125]                 2.6
1  CC(C)=CCCC(C)=CCOc1ccc2c(O)c(OCC=C(C)CCC=C(C)C)c(=O)oc2c1 [Compound 174]                 2.7

API: the following record is the query input.
Ask: Tell me measured Lesion Index after 3 days for CCCCCCOc1c(O)c2cc(OCCCC)ccc2oc1=O [Compound 98] please.
Result: 3.0
